Molecular target: dopamine D-1 receptor (Rattus norvegicus)
Test: biochemical
Conditions: D-1 Ki, rat caudate, [125I]SCH-23982
Counter-ions that a name gives are not always drawn.
endpoint name: Ki (nM)

molecule	unit label	result
NC[C@@H]1O[C@H](COc2ccc(Br)cc2)Cc2c1ccc(O)c2O (relative stereo)	nM	260
NC[C@H]1O[C@@H](c2ccc(C(F)(F)F)cc2)Cc2c1ccc(O)c2O (relative stereo)	nM	220
COC(=O)Oc1ccc2c(c1OC(=O)OC)CC(c1ccccc1)C=C2CN (centres unmarked)	nM	500
C#CCNC[C@H]1O[C@@H](C2CCCCC2)Cc2c1ccc(O)c2O (relative stereo)	nM	2500
C=CC(C)[C@H]1Cc2c(ccc(O)c2O)[C@@H](CN)O1 (relative stereo)	nM	17
NC[C@H]1O[C@@H](CNC(=O)c2ccco2)Cc2c1ccc(O)c2O (relative stereo)	nM	17000
COc1cccc([C@@H]2Cc3c(ccc(O)c3O)[C@H](CN)O2)c1 (relative stereo)	nM	11
NC[C@H]1C[C@@H](c2ccccc2)Cc2c1ccc(O)c2O (relative stereo) [Example 35, Hydrobromide]	nM	30

[I] CN1CCC2=C(C1)c1ccc(O)c(O)c1CC21CCCCCCC1
[II] NC[C@H]1O[C@@H](CN2CCCC2)Cc2c1ccc(O)c2O (relative stereo) [Example 156, Dihydrochloride]
Problem: For the two items I and II , which reports the higher Ki value? Please respond with the label that marks your chosen entry.
Result: II

[a] CC(=O)NC[C@H]1Cc2c(ccc(O)c2O)[C@@H](CN)O1 (relative stereo)
[b] CC[C@H]1Cc2c(ccc(O)c2O)[C@@H](CN)O1 (relative stereo)
Problem: For the two items a and b , which reports the higher Ki value? Please respond with the label that marks your chosen entry.
Result: a
(a: 1300 nM, b: 235 nM)

---

Biological target: dopamine D-1 receptor (Rattus norvegicus, UniProt P18901)
Sequence (P18901 whole entry): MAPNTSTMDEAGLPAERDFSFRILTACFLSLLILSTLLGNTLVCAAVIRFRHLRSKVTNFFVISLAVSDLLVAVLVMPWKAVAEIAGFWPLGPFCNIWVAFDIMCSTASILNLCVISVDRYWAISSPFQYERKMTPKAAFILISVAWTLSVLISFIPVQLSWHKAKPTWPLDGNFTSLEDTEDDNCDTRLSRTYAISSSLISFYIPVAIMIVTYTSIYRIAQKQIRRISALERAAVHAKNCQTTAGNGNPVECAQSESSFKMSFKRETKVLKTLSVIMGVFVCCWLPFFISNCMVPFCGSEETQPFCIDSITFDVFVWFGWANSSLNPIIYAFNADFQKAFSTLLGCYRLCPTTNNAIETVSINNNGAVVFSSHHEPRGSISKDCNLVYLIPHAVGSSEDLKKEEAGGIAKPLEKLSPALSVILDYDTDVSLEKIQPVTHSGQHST
Assay: biochemical
Conditions: D-1 Ki, rat caudate, [125I]SCH-23982
endpoint name: Ki (µM)

compound	tested target	Ki / µM
CCCCCCCC[C@@H]1Cc2c(ccc(O)c2O)[C@H](CN)O1 (relative stereo)	dopamine D-1 receptor (Rattus norvegicus, UniProt P18901)	0.64

[I] Oc1ccc2c(c1O)CC1(CCCC1)C1=C2CNCC1
[II] NCC1CC2(CCCCCCC2)Cc2c1ccc(O)c2O (centres unmarked)
[III] CNC[C@@H]1O[C@H](c2ccccc2)Cc2c1ccc(O)c2O
Problem: Sort low-to-high on Ki, please. List the labels in the requested order.
Result: III, I, II

---

Tested on: dopamine D-1 receptor
Settings: dopamine = 100; goldfish retina or rat striatum
endpoint name: Intrinsic Activity (adenylate cyclase assay)

# example entries with known answers
compound	result
CC(C)(C)C[C@H]1Cc2c(ccc(O)c2O)[C@@H](CN)O1 (relative stereo) [Example 104]	110
CC(C)(C)C1Cc2c(ccc(O)c2O)C2=C1CCNC2 (stereo not drawn) [Example 203]	0
CC(C)(C)C1Cc2c(ccc(O)c2O)C(CN)O1 (stereo not drawn) [Example 102]	113
C#CCNC[C@H]1O[C@@H](C2CCCCC2)Cc2c1ccc(O)c2O (relative stereo) [Example 118]	87
C=CCN(C)C[C@H]1O[C@@H](CCCCCC)Cc2c1ccc(O)c2O (relative stereo) [Example 121]	51

[P] CNCC1OC(CC(C)(C)C)Cc2c1ccc(O)c2O (stereo not drawn) [Example 217]
[Q] Oc1ccc2c(c1O)CC(CC1CCCC1)C1=C2CNCC1 (stereo not drawn) [Example 209]
[R] CNC[C@@H]1O[C@H](c2ccccc2)Cc2c1ccc(O)c2O [Example 138]
[S] CC(=O)NCC1=CC(c2ccccc2)Cc2c1ccc(O)c2O (stereo not drawn) [Example 213]
[T] NC[C@@H]1O[C@H](C2CCCCC2)Cc2c1ccc1c2OC2(CCCCC2)O1 (relative stereo) [Example 63]
Problem: Sort low-to-high on Intrinsic Activity (adenylate cyclase assay), please. List the labels in the requested order.
Result: Q, T, S, P, R

[I] C=CC(C)[C@H]1Cc2c(ccc(O)c2O)[C@@H](CN)O1 (relative stereo) [Example 105]
[II] C=CCNC[C@H]1O[C@@H](CCCC)Cc2c1ccc(O)c2O (relative stereo) [Example 125]
Problem: Looking at recorded values for Intrinsic Activity (adenylate cyclase assay), does I or II come in lower? Please respond with the label that marks your chosen entry.
Result: II

[I] CCCCCC(NC(C)=O)[C@@H]1Cc2c(ccc(O)c2O)[C@H](CN)O1 (relative stereo) [Example 162]
[II] CCNCC1=CC(c2ccccc2)Cc2c1ccc(O)c2O (stereo not drawn) [Example 153]
[III] NC[C@@H]1O[C@H](c2ccc(I)cc2)Cc2c1ccc(O)c2O (relative stereo) [Example 80]
Problem: Sort low-to-high on Intrinsic Activity (adenylate cyclase assay), please. List the labels in the requested order.
Result: II, I, III
(II: 53, I: 107, III: 161)

[a] NCC1=CC(c2cccc(O)c2)Cc2c1ccc(O)c2O (stereo not drawn) [Example 38]
[b] CCCC(=O)NC[C@@H]1Cc2c(ccc(O)c2O)[C@H](CN)O1 (relative stereo) [Example 169]
Problem: Looking at recorded values for Intrinsic Activity (adenylate cyclase assay), does a or b come in lower? Please respond with the label that marks your chosen entry.
Result: a
(a: 91, b: 150)

---

Target: dopamine D-1 receptor (Rattus norvegicus, UniProt P18901)
Assay: biochemical
Conditions: D-1 Ki, rat caudate, [125I]SCH-23982
pKi: −log10 of the molar value. Where a name gives a salt, the structure may show the parent alone.
endpoint name: pKi

# example entries with known answers
molecule	tested target	pKi
NCC1OC2(CCOCC2)Cc2c1ccc(O)c2O (centres unmarked) [Example 95]	dopamine D-1 receptor (Rattus norvegicus, UniProt P18901)	6.28
CNCC1OC(CC2CCCC2)Cc2c1ccc(O)c2O (centres unmarked) [Example 218]	dopamine D-1 receptor (Rattus norvegicus, UniProt P18901)	7.70
NCC[C@H]1Cc2c(ccc(O)c2O)[C@@H](CN)O1 (relative stereo) [Example 159]	dopamine D-1 receptor (Rattus norvegicus, UniProt P18901)	5.51
CNC[C@@H]1S[C@H](c2ccccc2)Cc2c1ccc(O)c2O (relative stereo) [Example 187, Hydrochloride]	dopamine D-1 receptor (Rattus norvegicus, UniProt P18901)	5.60
CCCC1(CCC)Cc2c(ccc(O)c2O)C2=C1CCNC2 [Example 208]	dopamine D-1 receptor (Rattus norvegicus, UniProt P18901)	6.28
COC(=O)CCC(=O)Oc1ccc2c(c1OC(=O)CCC(=O)OC)CC(c1ccccc1)C=C2CN (centres unmarked) [Example 19]	dopamine D-1 receptor (Rattus norvegicus, UniProt P18901)	6.22

[P] NC[C@@H]1O[C@H](C2CCCCC2)Cc2c1ccc1c2OC2(CCCCC2)O1 (relative stereo) [Example 63]
[Q] CN(C)C[C@H]1O[C@@H](CC2CCCCC2)Cc2c1ccc(O)c2O (relative stereo) [Example 148A]
[R] Oc1ccc2c(c1O)C[C@H](c1ccccc1)O[C@@H]2[C@H]1CCCN1 [Example 127]
[S] Oc1ccc2c(c1O)CC1(CCCCCC1)C1=C2CNCC1 [Example 199, Hydrobromide]
[T] CC(C)(C)C(=O)NC[C@H]1Cc2c(ccc(O)c2O)[C@@H](CN)O1 (relative stereo) [Example 166]
Problem: Sort by pKi, descending. List the labels in the requested order.
Result: S, Q, R, T, P

---

Test system: dopamine D-1 receptor
Conditions: dopamine = 100; goldfish retina or rat striatum
endpoint name: Intrinsic Activity (adenylate cyclase assay)

# example entries with known answers
molecule	tested target	result
CC(C)C(=O)Oc1ccc2c(c1OC(=O)C(C)C)CC(c1ccccc1)C=C2CN (stereo not drawn)	dopamine D-1 receptor	46
CNC[C@@H]1O[C@H](C2(C)CCCCC2)Cc2c1ccc(O)c2O (relative stereo)	dopamine D-1 receptor	89
NC[C@@H]1O[C@H](CCOCc2ccccc2)Cc2c1ccc(O)c2O (relative stereo)	dopamine D-1 receptor	107
CNC[C@H]1O[C@@H](Cc2ccc(OC)cc2)Cc2c1ccc(O)c2O (relative stereo)	dopamine D-1 receptor	93
NC[C@@H]1O[C@H](C2CCCCC2)Cc2c1cc(Br)c(O)c2O (relative stereo)	dopamine D-1 receptor	61
CCOC(=O)Oc1ccc2c(c1OC(=O)OCC)CC(c1ccccc1)C=C2CN (stereo not drawn)	dopamine D-1 receptor	54
CCCCCC(NC(C)=O)[C@@H]1Cc2c(ccc(O)c2O)[C@H](CN)O1 (relative stereo) [Example 163]	dopamine D-1 receptor	140
Br.N[C@H]1CCc2cc(O)c(O)c3c2[C@H]1C[C@H](c1ccccc1)C3 (relative stereo)	dopamine D-1 receptor	56
Oc1ccc2c(c1O)CC1(CCCCCC1)C1CCNCC21 (stereo not drawn)	dopamine D-1 receptor	49

[P] Br.NC[C@@H]1C[C@H](C2CCCCC2)Cc2c1ccc(O)c2O
[Q] CCCC[C@@H]1Cc2c(ccc(O)c2O)[C@H](CN)O1 (relative stereo)
[R] CNC[C@H]1C[C@@H](c2ccccc2)Cc2c1ccc(O)c2O (relative stereo)
Problem: Sort by Intrinsic Activity (adenylate cyclase assay), descending. List the labels in the requested order.
Result: Q, R, P
